- Test system: MDA-MB-231 breast
- MEASUREMENT_PROTOCOL: NCI tumour cell line growth inhibition, 48 h
# GI50 listing for each entry below

>  <COMPOUND>
N#Cc1c(-c2ccc(Cl)cc2)cc(-c2cc(O)ccc2O)nc1N

>  <GI50>
1.25 µM

$$$$
>  <COMPOUND>
NC(=O)[C@@H](CCC(F)(F)F)N(Cc1ccc(-c2ncon2)cc1F)S(=O)(=O)c1ccc(Cl)cc1

>  <GI50>
36.3 µM

$$$$
>  <COMPOUND>
O=C1CS/C(=N/S(=O)(=O)c2ccc(N3N=C4c5ccccc5CC4C3c3cccs3)cc2)N(c2ccccc2)C1 (stereo not given)

>  <GI50>
21.4 µM

$$$$
>  <COMPOUND>
Cc1ccc2nc3ccccc3c(NCc3ccccc3)c2c1

>  <GI50>
3.33 µM

$$$$
>  <COMPOUND>
O=C(O)[C@@H]1CCCN1Cc1cc2cc3c(cc2c2cc(OCc4ccccc4)ccc12)OCO3

>  <GI50>
15 µM

$$$$
